Tested on: neutrophils
Assay: Neutrophil calcium flux assay (5-OXO-ETE-stimulated, Indo-1 fluorescence)
Type: cell-based
Details: Neutrophil, 5-OXO-ETE-stimulated calcium flux
Quantity name: IC50

>  <Compound>
CC(C)[C@H](CC(=O)O)CC(=O)c1c(CCCCOCc2ccccc2)n(C)c2ncc(C#N)cc12

>  <System>
neutrophils

>  <Recorded measurement>
> 300 nM

$$$$
>  <Compound>
Cn1c(CCCCCCC#CC2CC(F)(F)C2)c(C(=O)N2CC[C@H](c3noc(=O)[nH]3)C2)c2cc(C#N)cnc21

>  <System>
neutrophils

>  <Recorded measurement>
> 300 nM

$$$$
>  <Compound>
C[C@H](CC(=O)O)CC(=O)c1c(CCCCO[C@@H](C)c2ccccc2)n(C)c2ncc(C#N)cc12

>  <System>
neutrophils

>  <Recorded measurement>
< 100 nM

$$$$
>  <Compound>
C[C@H](CC(=O)O)CC(=O)c1c(CCCCCOCc2cccc(Cl)c2)n(C)c2ccc(C#N)cc12

>  <System>
neutrophils

>  <Recorded measurement>
100 to 300 nM

$$$$
>  <Compound>
Cc1nc2c(cc1C#N)c(C(=O)CC(C)CC(=O)O)c(CCCCOCc1cccc(Cl)c1)n2C (stereo not shown)

>  <System>
neutrophils

>  <Recorded measurement>
> 300 nM

$$$$
>  <Compound>
C[C@@H](CC(=O)NO)CC(=O)c1c(CCCCCCc2cccc(Cl)c2)n(C)c2ccc(Cl)cc12

>  <System>
neutrophils

>  <Recorded measurement>
> 300 nM

$$$$
>  <Compound>
Cn1c(CCCCCCC#CC2CC(F)(F)C2)c(C(=O)N2CC[C@H](C(=O)O)C2)c2cc(C#N)cnc21

>  <System>
neutrophils

>  <Recorded measurement>
< 100 nM

$$$$

###

Test system: neutrophils
Experiment: Neutrophil calcium flux assay (5-OXO-ETE-stimulated, Indo-1 fluorescence)
Type: cell-based
Details: Neutrophil, 5-OXO-ETE-stimulated calcium flux
pIC50: −log10 of the molar value.
Quantity name: pIC50

>  <Compound>
C[C@H](CC(=O)O)CC(=O)c1c(CCCCOCc2ccccc2)n(C)c2ncc(Cl)cc12

>  <Recorded measurement>
6.52 to 7.00

$$$$
>  <Compound>
CC(CC(=O)O)CC(=O)c1c(CCCCSCc2ccccc2)n(C)c2ncc(C#N)cc12 (stereo not drawn)

>  <Recorded measurement>
< 6.52

$$$$
>  <Compound>
C[C@H](CC(=O)O)CC(=O)c1c(CCCCCCCC#CC2CC(F)(F)C2)n(C)c2ncc(C#N)cc12

>  <Recorded measurement>
> 7.00

$$$$
>  <Compound>
Cn1c(CCCCCCC#CC2CC(F)(F)C2)c(C(=O)N2CC[C@](F)(C(=O)O)C2)c2cc(C#N)cnc21

>  <Recorded measurement>
< 6.52

$$$$
>  <Compound>
CC(CC(=O)NS(C)(=O)=O)CC(=O)c1c(CCCCOCc2cccc(Cl)c2)n(C)c2ccc(C#N)cc12 (stereo not drawn)

>  <Recorded measurement>
< 6.52

$$$$
>  <Compound>
CC(CC(=O)O)CC(=O)c1c(CCCCCCc2cccc(Cl)c2)n(C[C@@H](O)CO)c2ncc(C(N)=O)cc12 (stereo partly drawn)

>  <Recorded measurement>
6.52 to 7.00

$$$$
>  <Compound>
CC(CC(=O)O)CC(=O)c1c(COCCOCc2cccc(Cl)c2)n(C)c2ccc(Cl)cc12 (stereo not drawn)

>  <Recorded measurement>
6.52 to 7.00

$$$$
>  <Compound>
C[C@H](CC(=O)O)CC(=O)c1c(CCCCCCc2ccc(O)c(Cl)c2)n(C)c2ccc(Cl)cc12

>  <Recorded measurement>
> 7.00

$$$$
>  <Compound>
CC(CC(=O)O)CC(=O)c1c(CCCCOCCc2ccccc2)n(C)c2ncc(C#N)cc12 (stereo not drawn)

>  <Recorded measurement>
< 6.52

$$$$
>  <Compound>
C[C@H](CC(=O)O)N(C)C(=O)c1c(CCCCOCc2cccc(Cl)c2)n(C)c2ncc(C#N)cc12

>  <Recorded measurement>
< 6.52

$$$$
>  <Compound>
CC(CC(=O)O)CC(=O)c1c(CCCCOCc2ccc(Cl)cc2)n(C)c2ncc(C#N)cc12 (stereo not drawn)

>  <Recorded measurement>
6.52 to 7.00

$$$$
>  <Compound>
C[C@H](CC(=O)O)CC(=O)c1c(CCCCOCc2cccc(OC(F)(F)F)c2)n(C)c2cnccc12

>  <Recorded measurement>
> 7.00

$$$$
>  <Compound>
CC(CN(C)C(=O)c1c(CCCCCCc2cccc(Cl)c2)n(C)c2ccc(Cl)cc12)C(=O)O (stereo not drawn)

>  <Recorded measurement>
< 6.52

$$$$
>  <Compound>
CC(CC(=O)O)CC(=O)c1c(CCCCOCc2ccccc2)n(C)c2ncc(C#N)cc12 (stereo not drawn)

>  <Recorded measurement>
> 7.00

$$$$
>  <Compound>
C[C@@H](CC(=O)O)CC(=O)c1c(CCCCOCc2cccc(C#N)c2)n(C)c2ccncc12

>  <Recorded measurement>
< 6.52

$$$$
>  <Compound>
CC(CC(=O)O)CC(=O)c1c(CCCCOCc2cccc(C#N)c2)n(C)c2ncc(C(F)(F)F)cc12 (stereo not drawn)

>  <Recorded measurement>
6.52 to 7.00

$$$$
>  <Compound>
Cn1c(CCCCCCc2cccc(Cl)c2)c(C(=O)N2CCC[C@H](C(=O)O)C2)c2cc(Cl)ccc21

>  <Recorded measurement>
6.52 to 7.00

$$$$
>  <Compound>
Cn1c(CCCCCCC#CC2CC(F)(F)C2)c(C(=O)N2CC[C@H](C(=O)N[C@@H](CCC(N)=O)C(=O)O)C2)c2cc(C#N)cnc21

>  <Recorded measurement>
< 6.52

$$$$
